TESTED_TARGET: Urotensin-2 receptor (Homo sapiens, UniProt Q9UKP6)
Sequence (Q9UKP6 whole entry): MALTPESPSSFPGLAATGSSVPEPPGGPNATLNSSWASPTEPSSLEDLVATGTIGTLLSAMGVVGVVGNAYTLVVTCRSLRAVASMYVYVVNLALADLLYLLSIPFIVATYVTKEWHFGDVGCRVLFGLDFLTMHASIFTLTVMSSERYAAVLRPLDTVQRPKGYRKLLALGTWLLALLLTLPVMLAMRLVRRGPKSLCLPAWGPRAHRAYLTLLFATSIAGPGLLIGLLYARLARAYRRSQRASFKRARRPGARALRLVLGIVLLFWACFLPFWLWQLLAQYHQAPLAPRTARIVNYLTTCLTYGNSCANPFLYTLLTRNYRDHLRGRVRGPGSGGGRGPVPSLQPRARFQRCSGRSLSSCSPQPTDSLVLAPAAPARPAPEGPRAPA
TEST: Agonist activity at human urotensin-2 receptor transfected in NIH3T3 cells after 5 days by R-SAT assay
MEASUREMENT_LABEL: EC50 (nM)

COMPOUND	EC50 [nM]
CN(C)CCC(NC(=O)/C=C/c1ccc(C(F)(F)F)cc1)c1ccc(Cl)cc1 (centres undefined)	129
COc1ccc(/C=C/C(=O)NC(CCN(C)C)c2ccc(Cl)cc2)cc1 (centres undefined)	513
Cc1ccc(C(CCN(C)C)NC(=O)/C=C/c2ccccc2)cc1 (centres undefined)	1550
COc1ccc(CCC(=O)NC(CCN(C)C)c2ccc3ccccc3c2)cc1 (centres undefined)	1410
Cc1ccc(C(CCN(C)C)NC(=O)/C=C/c2ccc(C(F)(F)F)cc2)cc1 (centres undefined)	437

1. COc1ccc(/C=C/C(=O)NC(CCN(C)C)c2ccc(C)cc2)cc1 (centres undefined)
2. CN(C)CCC(NC(=O)CCc1ccc(C(F)(F)F)cc1)c1ccc2ccccc2c1 (centres undefined)
// compare: 1 vs 2 , metric EC50, want the smaller Provide the label of your selected option as the answer.
2
(2: 372 nM, 1: 2000 nM)

P. CN(C)CCC(NC(=O)/C=C/c1ccc(C(F)(F)F)cc1)c1ccc2ccccc2c1 (centres undefined)
Q. COc1ccc(/C=C/C(=O)NC(CCN(C)C)c2ccc3ccccc3c2)cc1 (centres undefined)
// compare measured EC50 between P and Q ; output the lower one Please indicate the selected item by its label.
P

----------
TESTED_TARGET: Urotensin-2 receptor (Homo sapiens)
TEST: Agonist activity at human urotensin-2 receptor transfected in NIH3T3 cells after 5 days by R-SAT assay relative to urotensin-2
Format: functional, cell-based
MEASUREMENT_LABEL: Efficacy (%)

MOLECULE	TESTED_TARGET	Efficacy / %
CN(C)CCC(NC(=O)C#Cc1ccccc1)c1ccc2ccccc2c1 (stereo unspecified)	Urotensin-2 receptor (Homo sapiens)	115
CN(C)CCC(NC(=O)CCc1ccc(C(F)(F)F)cc1)c1ccc2ccccc2c1 (stereo unspecified)	Urotensin-2 receptor (Homo sapiens)	75
Cc1ccc(C(CCN(C)C)NC(=O)/C=C/c2ccccc2)cc1 (stereo unspecified)	Urotensin-2 receptor (Homo sapiens)	97
COc1ccc(CCC(=O)NC(CCN(C)C)c2ccc3ccccc3c2)cc1 (stereo unspecified)	Urotensin-2 receptor (Homo sapiens)	113
CN(C)CCC(NC(=O)/C=C/c1ccc(C(F)(F)F)cc1)c1ccc(Cl)cc1 (stereo unspecified)	Urotensin-2 receptor (Homo sapiens)	133
Cc1ccc(C(CCN(C)C)NC(=O)/C=C/c2ccc(C(F)(F)F)cc2)cc1 (stereo unspecified)	Urotensin-2 receptor (Homo sapiens)	96

----------
TESTED_TARGET: Urotensin-2 receptor (Homo sapiens) (UniProt Q9UKP6)
Sequence (whole entry): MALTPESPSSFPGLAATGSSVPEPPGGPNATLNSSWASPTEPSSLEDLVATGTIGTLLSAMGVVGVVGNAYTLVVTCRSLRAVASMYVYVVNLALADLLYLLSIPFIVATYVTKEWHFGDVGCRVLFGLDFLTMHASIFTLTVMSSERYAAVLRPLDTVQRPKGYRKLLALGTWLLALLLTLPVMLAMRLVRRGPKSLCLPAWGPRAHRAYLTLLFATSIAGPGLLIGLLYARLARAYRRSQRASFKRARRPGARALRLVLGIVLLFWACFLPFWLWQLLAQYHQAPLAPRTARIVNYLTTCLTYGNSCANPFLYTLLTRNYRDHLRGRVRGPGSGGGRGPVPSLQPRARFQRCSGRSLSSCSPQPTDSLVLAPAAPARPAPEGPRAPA
TEST: Agonist activity at human urotensin-2 receptor transfected in NIH3T3 cells after 5 days by R-SAT assay relative to urotensin-2
Type: functional, cell-based
MEASUREMENT_LABEL: Efficacy (%)

Record excerpt, results attached:
COMPOUND	UNIT_INFO	NUMERIC_READOUT
COc1ccc(/C=C/C(=O)NC(CCN(C)C)c2ccc3ccccc3c2)cc1 (stereo not drawn)	%	106
COc1ccc(CCC(=O)NC(CCN(C)C)c2ccc(C)cc2)cc1 (stereo not drawn)	%	67
CN(C)CCC(NC(=O)CCc1ccccc1)c1ccc(Cl)cc1 (stereo not drawn)	%	139
COc1ccc(/C=C/C(=O)NC(CCN(C)C)c2ccc(Cl)cc2)cc1 (stereo not drawn)	%	99
Cc1ccc(C(CCN(C)C)NC(=O)Cc2ccccc2)cc1 (stereo not drawn)	%	83
CN(C)CCC(NC(=O)Cc1ccccc1)c1ccc2ccccc2c1 (stereo not drawn)	%	121

A. CN(C)CCC(NC(=O)Cc1ccccc1)c1ccc(Cl)cc1 (stereo not drawn)
B. CN(C)CCC(NC(=O)C#Cc1ccccc1)c1ccc(Cl)cc1 (stereo not drawn)
C. CN(C)CCC(NC(=O)Cc1ccc(C(F)(F)F)cc1)c1ccc(Cl)cc1 (stereo not drawn)
D. Cc1ccc(C(CCN(C)C)NC(=O)Cc2ccc(C(F)(F)F)cc2)cc1 (stereo not drawn)
Let's sort these by Efficacy, smallest first. Go ahead? Please list the labels in the order you were asked to rank them.
D, C, A, B
(D: 25%, C: 53%, A: 76%, B: 124%)

I. CN(C)CCC(NC(=O)CCc1ccc(C(F)(F)F)cc1)c1ccc(Cl)cc1 (stereo not drawn)
II. CN(C)CCC(NC(=O)/C=C/c1ccccc1)c1ccc(Cl)cc1 (stereo not drawn)
III. CN(C)CCC(NC(=O)Cc1ccc(C(F)(F)F)cc1)c1ccc2ccccc2c1 (stereo not drawn)
List the 3 entries from lowest Efficacy to highest Efficacy value. Use the labels to give the ranking in the order requested.
III, I, II

1. Cc1ccc(C(CCN(C)C)NC(=O)CCc2ccc(C(F)(F)F)cc2)cc1 (stereo not drawn)
2. CN(C)CCC(NC(=O)/C=C/c1ccccc1)c1ccc2ccccc2c1 (stereo not drawn)
Hello, I am sorting some records. Could you say if 1 or 2 has the smaller Efficacy value? Reply with the label of the item you choose.
1

----------
TESTED_TARGET: Urotensin-2 receptor (Homo sapiens) (UniProt Q9UKP6)
TEST: Agonist activity at human urotensin-2 receptor transfected in NIH3T3 cells after 5 days by R-SAT assay relative to urotensin-2
Format: functional, cell-based
MEASUREMENT_LABEL: Efficacy (%)

These recorded examples may help you get a feel for the data.
MOLECULE	Efficacy / %
CN(C)CCC(NC(=O)CCc1ccccc1)c1ccc2ccccc2c1 (stereo not drawn)	107
Cc1ccc(C(CCN(C)C)NC(=O)C#Cc2ccccc2)cc1 (stereo not drawn)	131
COc1ccc(CCC(=O)NC(CCN(C)C)c2ccc(Cl)cc2)cc1 (stereo not drawn)	101
COc1ccc(/C=C/C(=O)NC(CCN(C)C)c2ccc(C)cc2)cc1 (stereo not drawn)	79
Cc1ccc(C(CCN(C)C)NC(=O)CCc2ccccc2)cc1 (stereo not drawn)	73
COc1ccc(CC(=O)NC(CCN(C)C)c2ccc(C)cc2)cc1 (stereo not drawn)	62

I. COc1ccc(CC(=O)NC(CCN(C)C)c2ccc(Cl)cc2)cc1 (stereo not drawn)
II. CN(C)CCC(NC(=O)/C=C/c1ccc(C(F)(F)F)cc1)c1ccc2ccccc2c1 (stereo not drawn)
Could you kindly indicate whether I or II has the higher Efficacy value? // caller expects the label of the chosen entry
II
